- SYSTEM NAME: gE WT: HSV2 gE wildtype ectodomain (HSV2, UniProt P89475 21-416)
- METHOD: ELISA, supernatant
QUANTITY MEASURED: binding result

Solved cases (4 shown):
| BINDER | RESULT |
| --- | --- |
| mAb clone 20 (antibody, V domains shown) VH: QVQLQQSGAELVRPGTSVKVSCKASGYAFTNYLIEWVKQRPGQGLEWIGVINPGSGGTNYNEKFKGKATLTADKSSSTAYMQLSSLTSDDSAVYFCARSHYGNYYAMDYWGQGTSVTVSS VL: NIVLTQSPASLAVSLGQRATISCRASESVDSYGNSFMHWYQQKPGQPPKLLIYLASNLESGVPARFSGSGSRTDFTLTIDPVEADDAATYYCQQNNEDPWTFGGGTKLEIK | no binding |
| mAb clone 17 (antibody, V domains shown) VH: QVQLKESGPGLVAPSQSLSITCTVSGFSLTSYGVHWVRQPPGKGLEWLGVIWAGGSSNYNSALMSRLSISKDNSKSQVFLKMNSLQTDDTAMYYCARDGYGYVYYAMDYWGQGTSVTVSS VL: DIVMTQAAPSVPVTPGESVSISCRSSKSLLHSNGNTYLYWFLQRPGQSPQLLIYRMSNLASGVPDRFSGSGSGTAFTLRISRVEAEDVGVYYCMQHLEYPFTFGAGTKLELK | no binding |
| mAb clone 19 (antibody, V domains shown) VH: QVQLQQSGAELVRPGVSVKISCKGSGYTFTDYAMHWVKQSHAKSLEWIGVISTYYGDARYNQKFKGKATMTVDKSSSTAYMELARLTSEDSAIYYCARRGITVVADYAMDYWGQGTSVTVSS VL: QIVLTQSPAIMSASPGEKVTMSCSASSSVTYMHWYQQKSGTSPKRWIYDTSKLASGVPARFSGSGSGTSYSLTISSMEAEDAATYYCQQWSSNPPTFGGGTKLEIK | no binding |
| mAb clone 15 (antibody, V domains shown) VH: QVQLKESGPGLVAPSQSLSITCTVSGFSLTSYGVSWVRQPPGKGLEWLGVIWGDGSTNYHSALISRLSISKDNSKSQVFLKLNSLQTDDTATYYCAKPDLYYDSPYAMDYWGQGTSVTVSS VL: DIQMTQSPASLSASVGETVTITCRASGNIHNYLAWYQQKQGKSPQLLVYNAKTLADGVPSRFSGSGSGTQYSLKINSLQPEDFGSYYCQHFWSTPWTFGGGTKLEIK | no binding |

Now, please, on to the next binder.
The binder listed as mAb clone 14 (antibody, V domains shown, also called GEGI/14IIa) VH: QVQLQQSGAELMKPGASVKISCKATGYTFSSYWIEWVKQRPGHGLEWIGEILPGSGSTNYNEKFKGKATFTADTSSNTAYMQLSSLTSEDSAVYYCASGSAGNYYGSSYEAMDYWGQGTSVTVSS VL: DIVLTQSPASLAVSLGQRATISCRASKSVSTSGYSYMHWYQQKPGQPPKLLIYLASNLESGVPARFSGSGSGTDFTLNIHPVEEEDAATYYCQHSRELPLTFGAGTKLELK shows binding result equal to binds

Every entry's value here was drawn from patent US20230331820A1.
